Tested on: COLO 205 colorectal tumor cells
TEST_PROTOCOL: Tumor cell viability inhibition assay (CellTiter-Glo 2.0, 72 hours)
Format: cell-based
MEASUREMENT_CONDITIONS: Homo sapiens, COLO 205, 72 h, COLO 205 cell viability
pIC50: −log10 of the molar value.
RECORDED_METRIC: pIC50

// below: answered compounds
Cc1cc(-c2cc(Cl)ccc2OCCn2c(C)nc3c(c2=O)CC(N2CC(C(F)(F)F)C2)CC3)c2scc(C(=O)O)c2n1 (stereo not drawn) | > 5.30
Cc1cc(-c2cc(Cl)ccc2OCCn2c(C)nc3c(c2=O)C[C@@H](N2CCC(OC(F)(F)F)CC2)[C@H]2C[C@@H]32)c2scc(C(=O)O)c2n1 (single isomer, unassigned) | > 5.30

Query compound follows.
Would you mind telling me what pIC50 value was observed for Cc1cc(-c2cc(Cl)ccc2OCCn2c(C)nc3c(c2=O)CC(N(C)C2CC4(C2)CC(F)(F)C4)CC3)c2scc(C(=O)O)c2n1 (stereo not drawn) ? > 5.30
